- Test system: expanded OPCs
- Test summary: cells
- Run parameters: alamarBlue viability of expanded OPCs, compound at 10 µM, relative to DMSO control
Recorded endpoint: 10 µM (% DMSO)
State just the number; it will be interpreted in % DMSO.

Please review the entries below; each comes with its answer.
Give 10 µM (% DMSO) for CC(COc1ccccc1)NC(C)C(O)c1ccc(O)cc1 (stereo not drawn) 60.9

Give 10 µM (% DMSO) for `CC1=C(/C=C/C(C)=C/C=C/C(C)=C/C(=O)O)C(C)(C)CCC1` 58.3

Give 10 µM (% DMSO) for CCCC(C)(COC(N)=O)COC(=O)NC(C)C (stereo not drawn) 89.3

Give 10 µM (% DMSO) for NS(=O)(=O)Cc1noc2ccccc12 [Zonisamide] 87.8

Give 10 µM (% DMSO) for CCc1cccc2c3c([nH]c12)C(CC)(CC(=O)O)OCC3 (stereo not drawn) 92.3

---
Give 10 µM (% DMSO) for CCCCNc1cc(C(=O)O)cc(S(N)(=O)=O)c1Oc1ccccc1 [Bumetanide] 92.2

---

- Tested on: expanded OPCs
- Test summary: cells
- Run parameters: Rattus norvegicus, 72 h, read-out: 10 µM (% DMSO), alamarBlue viability of expanded OPCs, compound at 10 µM, sheet All Tox data
Recorded endpoint: viability at 10 µM (%)
State just the number; it will be interpreted in %.

Give viability at 10 µM for COCC1=C(C(=O)OC(C)OC(=O)OC(C)C)N2C(=O)[C@@H](NC(=O)/C(=N\OC)c3csc(N)n3)[C@H]2SC1 (stereo partly drawn) [Cefpodoxime proxetil] 98

---
Give viability at 10 µM for CNCC[C@@H](Oc1ccccc1C)c1ccccc1 [Atomoxetine] 33.8

Give viability at 10 µM for CC(C)Oc1ccc2c(=O)c(-c3ccccc3)coc2c1 [Ipriflavone] 117

---

Recorded viability at 10 µM, one value per entry.
- Test system: expanded OPCs
- Test summary: cells
- Run parameters: Rattus norvegicus, 72 h, read-out: 10 µM (% DMSO), alamarBlue viability of expanded OPCs, compound at 10 µM, sheet All Tox data
State just the number; it will be interpreted in %.

Give viability at 10 µM for CC=CC(=O)N(CC)c1ccccc1C (mixture of isomers) 97.8

Give viability at 10 µM for O=c1c(O[C@@H]2O[C@H](CO)[C@H](O)[C@H](O)[C@H]2O)c(-c2ccc(O)c(O)c2)oc2cc(O)cc(O)c12 [Hyperoside] 14.6

Give viability at 10 µM for CCC(COC(=O)c1cc(OC)c(OC)c(OC)c1)(c1ccccc1)N(C)C (centres unmarked) 147

Give viability at 10 µM for COc1ccc(C(CN(C)C)C2(O)CCCCC2)cc1 (centres unmarked) 76.7

Turning now to a further molecule:
Give viability at 10 µM for CC(c1cc2ccccc2s1)N(O)C(N)=O (centres unmarked) 77.4

---

Recorded 0.1 µM (% DMSO), one value per entry.
- Test system: expanded OPCs
- Test summary: cells
- Run parameters: alamarBlue viability of expanded OPCs, compound at 0.1 µM, relative to DMSO control
- Text: Having established a consistent assay for measuring OL differentiation in vitro, the next step was to utilize this assay to assess the ability of a wide array of compounds to promote OL differentiation. Prior to library screening, we first established the maximum non-toxic dose of each compound in the library. […] Three days later, we assessed viability of the treated cells by measuring AlamarBlue fluorescence, a measure of cell viability (see “Methods” section). […]
Output should be the measured figure followed by the unit it is expressed in.

Please review the entries below; each comes with its answer.
Give 0.1 µM (% DMSO) for O=C(O)CCCc1ccccc1 [4-Phenylbutyric acid] 90.4 % DMSO

Give 0.1 µM (% DMSO) for NC12CC3CC(CC(C3)C1)C2 [Amantadine] 89.6 % DMSO

Give 0.1 µM (% DMSO) for NS(=O)(=O)c1cc(C(=O)O)c(NCc2ccco2)cc1Cl [Furosemide] 87.5 % DMSO

Give 0.1 µM (% DMSO) for c1ccc(CC2=NCCN2)cc1 [Tolazoline] 90.4 % DMSO

Give 0.1 µM (% DMSO) for CCCC(C)(COC(N)=O)COC(=O)NC(C)C (stereo not drawn) [Carisoprodol] 92.1 % DMSO

Give 0.1 µM (% DMSO) for O=C(O)c1cc2ccccc2c(Cc2c(O)c(C(=O)O)cc3ccccc23)c1O.OCCOCCN1CCN(C(c2ccccc2)c2ccc(Cl)cc2)CC1 [Hydroxyzine pamoate salt] 223.4 % DMSO

Give 0.1 µM (% DMSO) for NC(=O)N1c2ccccc2C=Cc2ccccc21 [Carbamazepine] 107.0 % DMSO

Give 0.1 µM (% DMSO) for Cc1ccc(N(CC2=NCCN2)c2cccc(O)c2)cc1 [Phentolamine] 93.8 % DMSO

Give 0.1 µM (% DMSO) for Nc1nc(F)nc2c1ncn2[C@@H]1O[C@H](CO)[C@@H](O)[C@@H]1O [Fludarabine] 91.2 % DMSO

Give 0.1 µM (% DMSO) for CCN(CC)CCNC(=O)c1cc(Cl)c(N)cc1OC [Metoclopramide] 108.4 % DMSO

---
Give 0.1 µM (% DMSO) for CC(=O)CC(c1ccccc1)c1c(O)c2ccccc2oc1=O (stereo not drawn) [Warfarin] 92.9 % DMSO

Give 0.1 µM (% DMSO) for COc1ccc([C@@H]2Sc3ccccc3N(CCN(C)C)C(=O)[C@@H]2OC(C)=O)cc1 [Diltiazem] 81.4 % DMSO

The reported numbers originate from paper PMC5011342.
